- measurementTarget: GPR88 (Homo sapiens)
- testDescription: Lance Ultra TR-FRET cAMP assay using stable PPLS-HA-GPR88 CHO cells
- protocolConditions: stable PPLS-HA-GPR88 CHO cells; value in parentheses beside pEC50
recordedMetric: log10 of EC50 (log10 of the value in µM)
Note the log scale: values are log10 of EC50 expressed in µM.

# example entries with known answers
{"compound": "CCCc1ccc(-c2ccc(CC(=O)N[C@H](C)c3ccccc3)cc2)cc1 [Compound 26]", "reportedResult": -0.59}
{"compound": "CCCc1ccc(-c2ccc(N(C[C@@H](N)[C@@H](C)CC)C(=O)N(C)c3ccccc3)cc2)cc1 [Compound 39]", "reportedResult": 0.45}
{"compound": "COc1ccc(-c2ccc(N(C[C@@H](N)[C@@H](C)OC)C(=O)N[C@@H](C)c3ccccc3)cc2)cc1 [Compound 57]", "reportedResult": -0.05}
{"compound": "CCCc1ccc(-c2ccc(N(C[C@@H](N)[C@@H](C)CC)C(=O)N[C@H]3C[C@@H]3c3ccccc3)cc2)cc1 [Compound 45]", "reportedResult": 0.36}
{"compound": "CCCc1ccc(-c2ccc(N(C[C@@H](N)[C@@H](C)CC)C(=O)N[C@@H](COC)c3ccccc3)cc2)cc1 [Compound 48]", "reportedResult": 0.19}
{"compound": "CCCc1ccc(-c2ccc(C(C(=O)NC)C(=O)N[C@H](C)c3ccccc3)cc2)cc1 (mixture of isomers) [Compound 29]", "reportedResult": 0.14}

// moving on: another record for log10 of EC50
Task item: Please report the recorded log10 of EC50 for CCCC(C)COc1ccc([C@@H](CO)C(=O)NC(C)(C)c2ccccc2)cc1 (stereo partly shown) [Compound 19] .
Reply: 0.10

---

Listed molecules paired with reported Emax
- measurementTarget: GPR88 (Homo sapiens, UniProt Q9GZN0)
- Construct: expressed in transfected cells
- Sequence (Q9GZN0 whole entry): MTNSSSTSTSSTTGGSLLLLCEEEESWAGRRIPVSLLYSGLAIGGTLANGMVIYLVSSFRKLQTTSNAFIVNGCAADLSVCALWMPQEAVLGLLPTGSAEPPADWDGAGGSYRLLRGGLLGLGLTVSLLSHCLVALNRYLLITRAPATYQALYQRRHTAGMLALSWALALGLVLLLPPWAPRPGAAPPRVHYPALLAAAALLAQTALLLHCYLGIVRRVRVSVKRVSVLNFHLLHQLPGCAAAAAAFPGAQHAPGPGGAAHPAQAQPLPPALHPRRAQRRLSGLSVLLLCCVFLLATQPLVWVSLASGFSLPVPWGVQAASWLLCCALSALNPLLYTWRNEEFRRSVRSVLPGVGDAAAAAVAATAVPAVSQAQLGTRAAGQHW
- testDescription: Lance Ultra TR-FRET cAMP assay using stable PPLS-HA-GPR88 CHO cells
- Type: cell-based
- protocolConditions: CHO
- Protocol: The compounds of the present disclosure offer potent agonism to the orphan receptor GPR88. […] All compounds were evaluated for the GPR88 agonist activity in the inventors' previously established in vitro GPR88 Lance TR-FRET cAMP assay. […] Lance™ Ultra cAMP assay using stable PPLS-HA-GPR88 CHO cells. […] After incubation at room temperature for 1 hour, the TR-FRET signal (ex 337 nm) was read on a CLARIOstar multimode plate reader (BMG Biotech, Cary, NC). […]
// note: answer is a bare numeric in %

Task item: Please report the recorded Emax for CCCc1ccc(-c2ccc(N(C[C@@H](N)CC(C)C)C(=O)N[C@@H](C)c3ccccc3)cc2)cc1 [Compound 50] .
Reply: 112

Task item: Please report the recorded Emax for CCCC(C)COc1ccc([C@@H](CO)C(=O)N[C@H](C)c2ccco2)cc1 (stereo partly shown) [Compound 22] .
Reply: 108

Task item: Please report the recorded Emax for CCCC(C)COc1ccc([C@@H](CO)C(=O)N[C@@H]2C[C@H]2c2ccccc2)cc1 (stereo partly shown) [Compound 24] .
Reply: 83

Task item: Please report the recorded Emax for CCCC(C)COc1ccc([C@@H](CO)C(=O)N[C@H](C)c2ccccc2C)cc1 (stereo partly shown) [Compound 9] .
Reply: 48

Task item: Please report the recorded Emax for CCCC(C)COc1ccc([C@@H](CO)C(=O)N[C@H](C)c2ccccc2)cc1 (stereo partly shown) [Compound 4] .
Reply: 94

Task item: Please report the recorded Emax for CCCC(C)COc1ccc([C@@H](CO)C(=O)N[C@H](C)c2ccc(F)cc2)cc1 (stereo partly shown) [Compound 12] .
Reply: 92
